Values were extracted from paper PMC10065799.

- TARGET DESC: c-Src kinase domain (Homo sapiens, UniProt P12931)
- PROTOCOL DESCRIPTION: pTyr-Var library bacterial peptide display kinase screen (enrichment scores);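 further: log2 fold change in enrichment of variant over reference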
- Format: biochemical
- CONDITIONS USED: sheet "Src"; effect of the variant peptide relative to its reference peptide in the pTyr-Var library screen
TEST READOUT: Screen
Please state the value as a number alone, without comment.

Input line: Would you mind telling me what Screen value was observed for MARDIYQASFF [LTK_Y672_R673Q_YF] ?
Output line: 3.363

Input line: Quick one: Screen of SMEGLYSSAQD [CLIC5_Y111_T114A] ?
Output line: 0.03653

Input line: Which value of Screen has been reported for GNLLIYTEFGN [HGD_Y166_K171N] in the records?
Output line: -0.3322

Input line: Which Screen is reported for this sequence? QTPVLYAMLFH [MPZ_Y220_D224Y_YF]
Output line: -0.1434

Input line: Fill blank: measured Screen of the sequence FAELVYTVFWH [ASS1_Y322_G324V] is ____.
Output line: 0.03298

Input line: Record request: Screen value, item LDAFIYNAAVL [GRIN2A_Y730_D731N]
Output line: -1.489

Input line: Request the reported Screen associated with IMNLLYHVVGW [GBA_Y412_T408M]
Output line: 0.1521

Input line: // query Screen value for entry TSSAVYMNLAS [GATAD2B_Y317_I316V]
Output line: -0.9997
